Below, each entry is listed alongside its reported Semi-quantitative analysis of proteins binding to different plaque particles: Tau.
Test system: Tau plaque particles
TEST DETAILS: Mass spectroscopy proteomics, semi-quantitative binding affinity of serum proteins (plaqueproteome, Table 2)
Design: species or system human
CONDITION CONTEXT: higher number = stronger affinity
QUANTITY NAME: Semi-quantitative analysis of proteins binding to different plaque particles: Tau

[[record]]
molecule = "Isoform 2 of C4b-binding protein beta chain (protein) ASDEHCPELPPVDNSIFVAKEVEGQILGTYVCIKGYHLVGKKTLFCNASKEWDNTTTECRLGHCPDPVLVNGEFSSSGPVNVSDKITFMCNDHYILKGSNRSQCLEDHTWAPPFPICKSRDCDPPGNPVHGYFEGNNFTLGSTISYYCEDRYYLVGVQEQQCVDGEWSSALPVCKLIQEAPKPECEKALLAFQESKNLCEAMENFMQQLKESGMTMEELKYSLELKKAELKAKLL"
assay_result = 0

[[record]]
molecule = "Alpha-1-acid glycoprotein 2 (protein) QIPLCANLVPVPITNATLDRITGKWFYIASAFRNEEYNKSVQEIQATFFYFTPNKTEDTIFLREYQTRQNQCFYNSSYLNVQRENGTVSRYEGGREHVAHLLFLRDTKTLMFGSYLDDEKNWGLSFYADKPETTKEQLGEFYEALDCLCIPRSDVMYTDWKKDKCEPLEKQHEKERKQEEGES"
assay_result = 9

[[record]]
molecule = "Dermcidin (protein) YDPEAASAPGSGNPCHEASAAQKENAGEDPGLARQAPKPRKQRSSLLEKGLDGAKKAVGGLGKLGKDAVEDLESVGKGAVHDVKDVLDSVL"
assay_result = 0

[[record]]
molecule = "Apolipoprotein M (protein) MFHQIWAALLYFYGIILNSIYQCPEHSQLTTLGVDGKEFPEVHLGQWYFIAGAAPTKEELATFDPVDNIVFNMAAGSAPMQLHLRATIRMKDGLCVPRKWIYHLTEGSTDLRTEGRPDMKTELFSSSCPGGIMLNETGQGYQRFLLYNRSPHPPEKCVEEFKSLTSCLDSKAFLLTPRNQEACELSNN"
assay_result = 0

[[record]]
molecule = "Leucine-rich alpha-2-glycoprotein (protein) VTLSPKDCQVFRSDHGSSISCQPPAEIPGYLPADTVHLAVEFFNLTHLPANLLQGASKLQELHLSSNGLESLSPEFLRPVPQLRVLDLTRNALTGLPPGLFQASATLDTLVLKENQLEVLEVSWLHGLKALGHLDLSGNRLRKLPPGLLANFTLLRTLDLGENQLETLPPDLLRGPLQLERLHLEGNKLQVLGKDLLLPQPDLRYLFLNGNKLARVAAGAFQGLRQLDMLDLSNNSLASVPEGLWASLGQPNWDMRDGFDISGNPWICDQNLSDLYRWLQAQKDKMFSQNDTRCAGPEAVKGQTLLAVAKSQ"
assay_result = 1

